- target_desc: TP (Homo sapiens, UniProt P21731)
- Sequence (P21731 1-343): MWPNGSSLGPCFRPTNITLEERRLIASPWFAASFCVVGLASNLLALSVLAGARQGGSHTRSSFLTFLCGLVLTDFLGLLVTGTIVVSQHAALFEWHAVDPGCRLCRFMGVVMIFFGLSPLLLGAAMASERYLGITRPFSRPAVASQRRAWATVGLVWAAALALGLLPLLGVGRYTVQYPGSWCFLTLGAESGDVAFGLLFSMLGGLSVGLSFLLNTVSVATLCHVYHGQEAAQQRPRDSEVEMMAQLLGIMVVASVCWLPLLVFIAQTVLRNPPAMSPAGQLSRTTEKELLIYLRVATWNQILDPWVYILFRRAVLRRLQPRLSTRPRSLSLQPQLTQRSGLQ
- test_name: TP functional assay
- Assay type: cell-based
Readings of EC50 for the listed compounds

[
  {
    "compound_structure_string": "C[C@@H](O)CCC[C@H](O)/C=C/[C@H]1[C@H](O)CC(=O)[C@@H]1CCCCCCC(=O)O",
    "readout_unit": "µM",
    "EC50": 5.27
  },
  {
    "compound_structure_string": "C[C@@H](O)CCC[C@H](O)/C=C/[C@H]1[C@H](O)CC(=O)[C@@H]1C/C=C\\CCCC(=O)O",
    "readout_unit": "µM",
    "EC50": 3.01
  }
]

Numbers sourced from patent US8546603B2.
